The reported measurements were obtained from patent US11952365B2.

Assign pEC50 to each entry below.
# Test system: SARS-CoV-2-GHB-03021/2020
# assay.notes: SARS-CoV-2 Infection Model in Huh7 Cells
# Type: cell-based
# test.parameters: Severe acute respiratory syndrome coronavirus 2, Huh-7, 96 h, SARS-CoV-2, day 4 p.i., MTS, numeric bounds
pEC50: −log10 of the molar value.

* COc1cccc2[nH]c(C(=O)N3C[C@@H]4CCC[C@@H]4[C@H]3C(=O)N[C@H](CN3CCCC3=O)C(=O)C(=O)NC3CC3)cc12 (single isomer, unassigned) [Compound 113B] | < 4.30
* COc1cccc2[nH]c(C(=O)N3C[C@H]4[C@@H]([C@H]3C(=O)N[C@@H](C[C@@H]3CCNC3=O)C(=O)C(N)=O)C4(C)C)cc12 | < 4.00

Fill in pEC50 for each of the 3 molecules listed.
1. COc1cccc2[nH]c(C(=O)N3Cc4ccccc4C[C@H]3C(=O)N[C@@H](C[C@@H]3CCNC3=O)C(=O)C(=O)NC3CC3)cc12
2. O=C(NC1CC1)C(=O)[C@H](C[C@@H]1CCNC1=O)NC(=O)[C@@H]1CC2(CCN1C(=O)c1cc3c(Cl)cc(Cl)cc3[nH]1)CC2
3. O=C1NCC[C@H]1C[C@H](NC(=O)[C@@H]1[C@H]2CCC[C@H]2CN1C(=O)c1cc(S(=O)(=O)c2ccccc2)c[nH]1)C(=O)CO

Given back:
1. < 4.00
2. < 4.30
3. < 4.30

Dear reader, for each entry below, please note its pEC50.
1. O=C1NCC[C@H]1C[C@H](NC(=O)[C@@H]1[C@H]2CCC[C@H]2CN1C(=O)c1cc2c([nH]1)CCS2(=O)=O)C(=O)CO
2. COc1cccc2[nH]c(C(=O)N3C[C@@H]4CCC[C@@H]4[C@H]3C(=O)N[C@@H](CN3CCCNC3=O)C(=O)C(=O)NC3CC3)cc12
3. C=CC12CN(C(=O)c3cc4c(OC)cccc4[nH]3)C(C(=O)N[C@@H](C[C@@H]3CCNC3=O)C(=O)C(=O)NC3CC3)(C1)C2
4. COc1cccc2[nH]c(C(=O)N3C[C@@H]4CCC[C@@H]4[C@H]3C(=O)N[C@@H](Cn3cc[nH]c3=O)C(=O)C(=O)NC3CC3)cc12

Given back:
< 5.00
< 4.30
< 4.30
< 4.30
